The measured values listed here are drawn from patent US11498899B2.

# Test system: foxtail, giant (giant foxtail, Setaria faberii)
# Run description: Test A postemergence, visual injury rating 0-100
# Type: in vivo
# Experimental setup: 500 g ai/ha, 0 to 100 scale
Foxtail, Giant plant response rating by entry:
Property label: Foxtail, Giant plant response rating

[[record]]
molecule = "CC1=[N+]([O-])C(C(=O)Nc2cccc(F)c2F)C(c2cccc(Cl)c2C)C1 (racemic)"
property_label = "Foxtail, Giant plant response rating"
value_observed = 90

[[record]]
molecule = "CC1=[N+]([O-])C(C(=O)Nc2cccc(F)c2F)C(c2cc(C)cc(Cl)c2)C1 (stereo not drawn)"
property_label = "Foxtail, Giant plant response rating"
value_observed = 90

[[record]]
molecule = "CC1=[N+]([O-])C(C(=O)Nc2cccc(F)c2F)C(c2ccc(C(F)(F)F)cc2F)C1 (stereo not drawn)"
property_label = "Foxtail, Giant plant response rating"
value_observed = 90

[[record]]
molecule = "CC1=[N+]([O-])C(C(=O)Nc2cccc(F)c2F)C(c2ccc(C(F)(F)F)c(Br)c2)C1 (racemic)"
property_label = "Foxtail, Giant plant response rating"
value_observed = 70

[[record]]
molecule = "CC1=[N+]([O-])C(C(=O)Nc2cccc(F)c2F)C(c2ccc(Br)cn2)C1 (racemic)"
property_label = "Foxtail, Giant plant response rating"
value_observed = 0

[[record]]
molecule = "CC1=[N+]([O-])C(C)(C(=O)Nc2cccc(F)c2F)C(c2ccc(C(F)(F)F)cc2)C1 (racemic)"
property_label = "Foxtail, Giant plant response rating"
value_observed = 80

[[record]]
molecule = "COc1cccc(C2CC(C)=[N+]([O-])C2C(=O)Nc2cccc(F)c2F)n1 (racemic)"
property_label = "Foxtail, Giant plant response rating"
value_observed = 10

[[record]]
molecule = "CC1=[N+]([O-])[C@H](C(=O)Nc2cccc(F)c2F)[C@@H](c2ccc(C(F)F)cc2)C1 (relative stereo)"
property_label = "Foxtail, Giant plant response rating"
value_observed = 90

[[record]]
molecule = "CC1=[N+]([O-])C(C(=O)Nc2cccc(F)c2F)C(c2cccc(Cl)c2F)C1 (stereo not drawn)"
property_label = "Foxtail, Giant plant response rating"
value_observed = 90

[[record]]
molecule = "CC1=[N+]([O-])C(C(=O)Nc2cccc(F)c2F)C(c2cccc(C3OCCO3)c2)C1 (racemic)"
property_label = "Foxtail, Giant plant response rating"
value_observed = 30

[[record]]
molecule = "CC1=[N+]([O-])C(C(=O)Nc2cccc(F)c2F)C(c2cccc(C)c2)C1 (racemic)"
property_label = "Foxtail, Giant plant response rating"
value_observed = 90

[[record]]
molecule = "CC1=[N+]([O-])C(C(=O)Nc2cccc(F)c2F)C(c2ccc(OC(F)(F)F)c(F)c2)C1 (racemic)"
property_label = "Foxtail, Giant plant response rating"
value_observed = 90

[[record]]
molecule = "CC1=[N+]([O-])C(C(=O)Nc2cccc(F)c2F)C(c2cc(C)n(Cc3ccc(Cl)cc3)c(=O)c2)C1 (racemic)"
property_label = "Foxtail, Giant plant response rating"
value_observed = 0

[[record]]
molecule = "CC1=[N+]([O-])C(C(=O)Nc2cccc(F)c2F)C(c2ccc(F)cc2Oc2ncc(F)cn2)C1 (racemic)"
property_label = "Foxtail, Giant plant response rating"
value_observed = 90

[[record]]
molecule = "CC1=[N+]([O-])[C@@H](C(=O)Nc2cccc(F)c2F)[C@H](c2ccc(Cl)cc2)C1 (relative stereo)"
property_label = "Foxtail, Giant plant response rating"
value_observed = 70

